test_system: cIAP1-BIR3 (Homo sapiens (Human))
Sequence (Q13490 253-363): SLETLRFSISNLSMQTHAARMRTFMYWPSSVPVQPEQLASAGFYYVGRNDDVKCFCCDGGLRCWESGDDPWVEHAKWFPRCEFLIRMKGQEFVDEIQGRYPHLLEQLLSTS
test_method_notes: BIR binding assay (FRET competition), cIAP1 BIR3
recorded_conditions: fold separation (FS) for cIAP1
property: cIAP1 BIR3 vs BIR2 separation window

INSERT INTO assay_data (molecule, test_system, property, assay_value) VALUES
  ('Cc1c(OC[C@@H]2CN(C[C@H]3CN[C@H](C)CN3CC(=O)N3CC(C)(C)c4[nH]c(=O)c(Cc5ccc(F)cc5)cc43)CCO2)cccc1OC[C@@H]1CN(C[C@H]2CN[C@H](C)CN2CC(=O)N2CC(C)(C)c3[nH]c(=O)c(Cc4ccc(F)cc4)cc32)CCO1 [Example 79]', 'cIAP1-BIR3 (Homo sapiens (Human))', 'cIAP1 BIR3 vs BIR2 separation window', '+++ (10,000>FS>1,000)'),
  ('C[C@@H]1CN(CC(=O)N2CC(C)(C)c3[nH]c(=O)c(Cc4ccc(Cl)cc4O)cc32)[C@@H](CN2CCO[C@H](C(=O)NCc3ccc(CNC(=O)[C@@H]4CN(C[C@H]5CN[C@H](C)CN5CC(=O)N5CC(C)(C)c6[nH]c(=O)c(Cc7ccc(Cl)cc7O)cc65)CCO4)cc3)C2)CN1 [Compound 164]', 'cIAP1-BIR3 (Homo sapiens (Human))', 'cIAP1 BIR3 vs BIR2 separation window', '++ (1,000>FS>100)'),
  ('C[C@@H]1CN(CC(=O)N2CC(C)(C)c3[nH]c(=O)c(Cc4ccc(F)cc4)cc32)[C@@H](CN2CCN(C(=O)COCCOCCOCC(=O)N3CCN(C[C@H]4CN[C@H](C)CN4CC(=O)N4CC(C)(C)c5[nH]c(=O)c(Cc6ccc(F)cc6)cc54)[C@H](C)C3)C[C@H]2C)CN1 (stereo in doubt) [Example 6]', 'cIAP1-BIR3 (Homo sapiens (Human))', 'cIAP1 BIR3 vs BIR2 separation window', '+++ (10,000>FS>1,000)'),
  ('C[C@@H]1CN(CC(=O)N2CC(C)(C)c3[nH]c(=O)c(Cc4cc(F)c(F)cc4F)cc32)[C@@H](CN2CCO[C@H](C(=O)NCc3ccc(CNC(=O)[C@@H]4CN(C[C@H]5CN[C@H](C)CN5CC(=O)N5CC(C)(C)c6[nH]c(=O)c(Cc7cc(F)c(F)cc7F)cc65)CCO4)cc3)C2)CN1 [Compound 175]', 'cIAP1-BIR3 (Homo sapiens (Human))', 'cIAP1 BIR3 vs BIR2 separation window', '+++ (10,000>FS>1,000)'),
  ('C[C@@H]1CN(CC(=O)N2CC(C)(C)c3[nH]c(=O)c(Cc4ccc(F)cc4)cc32)[C@@H](CN2CCO[C@H](COc3ccc(OC[C@@H]4CN(C[C@H]5CN[C@H](C)CN5CC(=O)N5CC(C)(C)c6[nH]c(=O)c(Cc7ccc(F)cc7)cc65)CCO4)cc3)C2)CN1 [Example 70]', 'cIAP1-BIR3 (Homo sapiens (Human))', 'cIAP1 BIR3 vs BIR2 separation window', '+++ (10,000>FS>1,000)');

Give me cIAP1 BIR3 vs BIR2 separation window for each of these molecules, listed below.
1. C[C@@H]1CN(CC(=O)N2CC(C)(C)c3[nH]c(=O)c(Cc4ccc(F)cc4)cc32)[C@@H](CN2CCN(CCCCCCCCCCN3CCN(C[C@H]4CN[C@H](C)CN4CC(=O)N4CC(C)(C)c5[nH]c(=O)c(Cc6ccc(F)cc6)cc54)[C@H](C)C3)C[C@H]2C)CN1 [Example 25]
2. C[C@@H]1CN(CC(=O)N2CC(C)(C)c3[nH]c(=O)c(Cc4ccc(F)cc4)cc32)[C@@H](CN2CCO[C@H](C(=O)NCCCCCNC(=O)[C@@H]3CN(C[C@H]4CN[C@H](C)CN4CC(=O)N4CC(C)(C)c5[nH]c(=O)c(Cc6ccc(F)cc6)cc54)CCO3)C2)CN1 [Compound 136]

1. ++ (1,000>FS>100)
2. +++ (10,000>FS>1,000)

----------
Test system: Jurkat HIV-luciferase clones
test_method_notes: Jurkat latency reversal assay
Assay type: cell-based
recorded_conditions: Homo sapiens, 48 h; Jurkat latency reversal assay potency; read-out: Jurkat pEC50 (converted)
Method: Jurkat HIV-luciferase clones were maintained in RPMI medium 1640 (Gibco by Life Technologies) containing 10% (vol/vol) fetal bovine serum (SAFC/Sigma-Aldrich) and 25 units/mL penicillin, 25 units/mL streptomycin (Gibco by Life Technologies), and were split 1:4 every 3 to 4 days to maintain a cell density of ˜0.3 to 1 million cells/mL. […] Luminescence resulting from the induction of the virally expressed luciferase was measured using an EnVision 2102 Multilabel Plate Reader (Perkin Elmer). […]
property: EC50

INSERT INTO results (molecule, property, assay_value) VALUES
  ('Cc1cc(OC[C@@H]2CN(C[C@H]3CN[C@H](C)CN3CC(=O)N3CC(C)(C)c4[nH]c(=O)c(Cc5ccc(F)cc5)cc43)CCO2)cc(OC[C@@H]2CN(C[C@H]3CN[C@H](C)CN3CC(=O)N3CC(C)(C)c4[nH]c(=O)c(Cc5ccc(F)cc5)cc43)CCO2)c1 [Example 86]', 'EC50', '0.49 to 12.6 nM');

Give me EC50 for each of these molecules, listed below.
1. C[C@@H]1CN(CC(=O)N2CC(C)(C)c3[nH]c(=O)c(Cc4ccc(Cl)cc4C#N)cc32)[C@@H](CN2CCO[C@H](C(=O)NCc3ccc(CNC(=O)[C@@H]4CN(C[C@H]5CN[C@H](C)CN5CC(=O)N5CC(C)(C)c6[nH]c(=O)c(Cc7ccc(Cl)cc7C#N)cc65)CCO4)cc3)C2)CN1 [Compound 171]
2. C[C@@H]1CN(CC(=O)N2CC(C)(C)c3[nH]c(=O)c(Cc4ccc(F)cc4)cc32)[C@@H](CN2CCO[C@H](COc3ccc(S(=O)(=O)c4ccc(OC[C@@H]5CN(C[C@H]6CN[C@H](C)CN6CC(=O)N6CC(C)(C)c7[nH]c(=O)c(Cc8ccc(F)cc8)cc76)CCO5)cc4)cc3)C2)CN1 [Example 57]
3. C[C@@H]1CN(CC(=O)N2CC(C)(C)c3[nH]c(=O)c(Cc4ccc(F)cc4)cc32)[C@@H](CN2CCC(CNC(=O)Cc3ccc(CC(=O)NCC4CCN(C[C@H]5CN[C@H](C)CN5CC(=O)N5CC(C)(C)c6[nH]c(=O)c(Cc7ccc(F)cc7)cc65)CC4)cc3)CC2)CN1 [Example 102]
4. C[C@@H]1CN(CC(=O)N2CC(C)(C)c3[nH]c(=O)c(Cc4ccc(F)cc4)cc32)[C@@H](CN2CCN(C(=O)COc3cccc(OCC(=O)N4CCN(C[C@H]5CN[C@H](C)CN5CC(=O)N5CC(C)(C)c6[nH]c(=O)c(Cc7ccc(F)cc7)cc65)[C@H](C)C4)c3)C[C@H]2C)CN1 [Example 11]
5. C[C@@H]1CN(CC(=O)N2CC(C)(C)c3[nH]c(=O)c(Cc4ccc(Cl)cc4Cl)cc32)[C@@H](CN2CCO[C@H](C(=O)NCc3ccc(CNC(=O)[C@@H]4CN(C[C@H]5CN[C@H](C)CN5CC(=O)N5CC(C)(C)c6[nH]c(=O)c(Cc7ccc(Cl)cc7Cl)cc65)CCO4)cc3)C2)CN1 [Compound 165]
6. C[C@@H]1CN(CC(=O)N2CC(C)(C)c3[nH]c(=O)c(Cc4ccc(F)cc4)cc32)[C@@H](CN2CCO[C@H](COc3ccccc3Oc3ccccc3OC[C@@H]3CN(C[C@H]4CN[C@H](C)CN4CC(=O)N4CC(C)(C)c5[nH]c(=O)c(Cc6ccc(F)cc6)cc54)CCO3)C2)CN1 [Example 68]

["12.6 to 63.1 nM", "12.6 to 63.1 nM", "63.1 to 316 nM", "63.1 to 316 nM", "12.6 to 63.1 nM", "0.49 to 12.6 nM"]

----------
Answer each item with its documented IC50.
test_system: cIAP1-BIR2 (Homo sapiens (Human))
Sequence (Q13490 173-257): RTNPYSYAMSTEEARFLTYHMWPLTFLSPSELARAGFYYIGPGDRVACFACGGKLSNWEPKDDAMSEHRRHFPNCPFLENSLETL
test_method_notes: BIR binding assay (FRET competition), cIAP1 BIR2

Example entries and their recorded answers appear below.
INSERT INTO results (structure_smiles, assay_value) VALUES
  ('C[C@@H]1CN(CC(=O)N2CC(C)(C)c3[nH]c(=O)c(Cc4ccc(F)cc4)cc32)[C@@H](CN2CCO[C@H](C(=O)N(C)CCCCN(C)C(=O)[C@@H]3CN(C[C@H]4CN[C@H](C)CN4CC(=O)N4CC(C)(C)c5[nH]c(=O)c(Cc6ccc(F)cc6)cc54)CCO3)C2)CN1', '1 to 3.16 µM'),
  ('Cc1c(NC(=O)[C@@H]2CN(C[C@H]3CN[C@H](C)CN3CC(=O)N3CC(C)(C)c4[nH]c(=O)c(Cc5ccc(F)cc5)cc43)CCO2)cccc1NC(=O)[C@@H]1CN(C[C@H]2CN[C@H](C)CN2CC(=O)N2CC(C)(C)c3[nH]c(=O)c(Cc4ccc(F)cc4)cc32)CCO1', '1 to 3.16 µM'),
  ('C[C@@H]1CN(CC(=O)N2CC(C)(C)c3[nH]c(=O)c(Cc4ccc(F)cc4)cc32)[C@@H](CN2CCO[C@@H](C(=O)NCc3ccc(CNC(=O)[C@H]4CN(C[C@H]5CN[C@H](C)CN5CC(=O)N5CC(C)(C)c6[nH]c(=O)c(Cc7ccc(F)cc7)cc65)CCO4)cc3)C2)CN1', '3.16 to 10 µM'),
  ('C[C@@H]1CN(CC(=O)N2CC(C)(C)c3[nH]c(=O)c(Cc4ccc(F)cc4)cc32)[C@@H](CN2CCN(Cc3c(F)c(F)c(CN4CCN(C[C@H]5CN[C@H](C)CN5CC(=O)N5CC(C)(C)c6[nH]c(=O)c(Cc7ccc(F)cc7)cc65)[C@H](C)C4)c(F)c3F)C[C@H]2C)CN1', '1 to 3.16 µM');

Give me IC50 for each of these molecules, listed below.
1. C[C@@H]1CN(CC(=O)N2CC(C)(C)c3[nH]c(=O)c(Cc4ccc(F)cc4)cc32)[C@@H](CN2CCO[C@H](C(=O)NCCCN3CCN(CCCNC(=O)[C@@H]4CN(C[C@H]5CN[C@H](C)CN5CC(=O)N5CC(C)(C)c6[nH]c(=O)c(Cc7ccc(F)cc7)cc65)CCO4)CC3)C2)CN1
2. C[C@@H]1CN(CC(=O)N2CC(C)(C)c3[nH]c(=O)c(Cc4ccc(F)cc4)cc32)[C@@H](CN2CCO[C@H](C(=O)NCCCCCNC(=O)[C@@H]3CN(C[C@H]4CN[C@H](C)CN4CC(=O)N4CC(C)(C)c5[nH]c(=O)c(Cc6ccc(F)cc6)cc54)CCO3)C2)CN1
3. Cc1cc(OC[C@@H]2CN(C[C@H]3CN[C@H](C)CN3CC(=O)N3CC(C)(C)c4[nH]c(=O)c(Cc5ccc(F)cc5)cc43)CCO2)cc(OC[C@@H]2CN(C[C@H]3CN[C@H](C)CN3CC(=O)N3CC(C)(C)c4[nH]c(=O)c(Cc5ccc(F)cc5)cc43)CCO2)c1

1: 3.16 to 10 µM; 2: 1 to 3.16 µM; 3: 1 to 3.16 µM
